test: isobaric coefficient of expansion; conditions: 288.15 K; 15000 kPa; Liquid; DSC
Measured Quantity: isobaric coefficient of expansion

Completed entries (count: 3):
Which measured isobaric coefficient of expansion value corresponds to C[N+](=O)[O-] [nitromethane] ?
0.00114 1/K

Which measured isobaric coefficient of expansion value corresponds to CCC#N [propanenitrile] ?
0.00118 1/K

Which measured isobaric coefficient of expansion value corresponds to O=[N+]([O-])c1ccccc1 [nitrobenzene] ?
0.000797 1/K

Give isobaric coefficient of expansion for each of the items listed below.
1. N#Cc1ccccc1 [benzonitrile]
2. CC[N+](=O)[O-] [nitroethane]
3. CCC[N+](=O)[O-] [1-nitropropane]

["0.000819 1/K", "0.00109 1/K", "0.00101 1/K"]

---

Kindly supply the reported isobaric coefficient of expansion values for the records listed here.
assay: isobaric coefficient of expansion; details: 288.15 K; 20000 kPa; Liquid; DSC

Completed entries (count: 5):
Which measured isobaric coefficient of expansion value corresponds to CCC#N [propanenitrile] ?
0.00115 1/K

Which measured isobaric coefficient of expansion value corresponds to CCC[N+](=O)[O-] [1-nitropropane] ?
0.000991 1/K

Which measured isobaric coefficient of expansion value corresponds to C[N+](=O)[O-] [nitromethane] ?
0.00112 1/K

Which measured isobaric coefficient of expansion value corresponds to CC[N+](=O)[O-] [nitroethane] ?
0.00107 1/K

Which measured isobaric coefficient of expansion value corresponds to O=[N+]([O-])c1ccccc1 [nitrobenzene] ?
0.000785 1/K

Now look at this entry.
Which measured isobaric coefficient of expansion value corresponds to N#Cc1ccccc1 [benzonitrile] ?
0.000811 1/K

---

test: isobaric coefficient of expansion; conditions: 338.15 K; 45000 kPa; Liquid; DSC
Kindly supply the reported isobaric coefficient of expansion values for the records listed here.

Completed entries (count: 2):
Which measured isobaric coefficient of expansion value corresponds to `CCC#N` ?
0.00105 1/K

Which measured isobaric coefficient of expansion value corresponds to `N#Cc1ccccc1` ?
0.000747 1/K

Give isobaric coefficient of expansion for each of the items listed below.
1. O=[N+]([O-])c1ccccc1
2. C[N+](=O)[O-]
3. CC[N+](=O)[O-]
4. CCC[N+](=O)[O-]

["0.000725 1/K", "0.00105 1/K", "0.000982 1/K", "0.000914 1/K"]

---

Kindly supply the reported isobaric coefficient of expansion values for the records listed here.
test: isobaric coefficient of expansion; conditions: 288.15 K; 45000 kPa; Liquid; DSC

Completed entries (count: 2):
Which measured isobaric coefficient of expansion value corresponds to `CC[N+](=O)[O-]` ?
0.000972 1/K

Which measured isobaric coefficient of expansion value corresponds to `CCC[N+](=O)[O-]` ?
0.000902 1/K

Give isobaric coefficient of expansion for each of the items listed below.
1. N#Cc1ccccc1
2. C[N+](=O)[O-]
3. CCC#N
4. O=[N+]([O-])c1ccccc1

1: 0.000759 1/K; 2: 0.00102 1/K; 3: 0.00103 1/K; 4: 0.000729 1/K

---

test: isobaric coefficient of expansion; settings: 288.15 K; 30000 kPa; Liquid; DSC
Measured Quantity: isobaric coefficient of expansion

Completed entries (count: 5):
Which measured isobaric coefficient of expansion value corresponds to C[N+](=O)[O-] [nitromethane] ?
0.00108 1/K

Which measured isobaric coefficient of expansion value corresponds to CCC#N [propanenitrile] ?
0.0011 1/K

Which measured isobaric coefficient of expansion value corresponds to N#Cc1ccccc1 [benzonitrile] ?
0.000789 1/K

Which measured isobaric coefficient of expansion value corresponds to O=[N+]([O-])c1ccccc1 [nitrobenzene] ?
0.000762 1/K

Which measured isobaric coefficient of expansion value corresponds to CC[N+](=O)[O-] [nitroethane] ?
0.00103 1/K

Now look at this entry.
Which measured isobaric coefficient of expansion value corresponds to CCC[N+](=O)[O-] [1-nitropropane] ?
0.000954 1/K

Ref: the NIST ThermoML archive (doi:10.1021/je900672g)
